Catalogue of compounds with associated melting point

Example entries and their recorded answers appear below.
1. Cc1cc(Cc2cc(C(F)(F)F)cc(C(F)(F)F)c2)ccc1NC(=O)c1cccc(Cl)c1C(=O)N[C@@H](C)CS(C)(=O)=O :: 155 to 158 °C
2. CSC[C@H](C)NC(=O)c1c(Cl)cccc1C(=O)Nc1ccc(Cc2cc(C(F)(F)F)cc(C(F)(F)F)c2)nc1C :: 73 to 79 °C
3. Cc1cc(Cc2cc(C(F)(F)F)cc(C(F)(F)F)c2)ccc1NC(=O)c1cccc(Cl)c1C(=O)N[C@@H](C)C[S+](C)[O-] (some centres unmarked) :: 162 to 165 °C
4. CSC[C@H](C)NC(=O)c1c(Cl)cccc1C(=O)Nc1ccc(Cc2cc(C(F)(F)F)cc(C(F)(F)F)c2)cc1C :: 57 to 62 °C

Turning now to a further compound:
So, CSC[C@H](C)NC(=O)c1c(C)cccc1C(=O)Nc1ccc(Cc2cc(C(F)(F)F)cc(C(F)(F)F)c2)cc1C ? Its melting point was 85 to 94 °C

The values you see were collected from patent US8110689B2.
